# protocol notes: Half life in rat at 10 mg/kg administered as suspension
# Type: ADME, organism-based
# Set-up: dose 10 mg/kg
# measurement parameters: in vivo
property name: half-life (h)
# output: bare number, implied unit h

For record `C[C@@H](N[C@@H]1CCCc2c1[nH]c1ccc(Br)cc21)c1ccccc1` the listed half-life is 4.4

---

Give measured CC50 for each item. Keep answers brief.
# protocol notes: Cytotoxicity against human HFF cells
# Format: cell-based
# measurement parameters: HFF cells

For record `C[C@H](N[C@@H]1CCCc2c1[nH]c1ccc(Br)cc21)c1ccccc1` the listed CC50 is 15 µM

For record Cc1ccc2[nH]c3c(c2c1)CCCC3NCCO (racemic) the listed CC50 is > 30 µM

For record `Cc1ccc2[nH]c3c(c2c1)CCC[C@H]3N[C@H](C)c1ccccc1` the listed CC50 is 29 µM

For record CC(C)(NC1CCCc2c1[nH]c1ccc(Br)cc21)c1ccccc1 (racemic) the listed CC50 is > 40 µM

For record Brc1cccc2c3c([nH]c12)C(NCc1ccccc1)CCC3 (racemic) the listed CC50 is > 40 µM

Origin of the recorded values: ChEMBL document CHEMBL1136961
